Where these numbers come from: PubChem BioAssay (EPA / NIEHS)

Biological target: Bile acid receptor (Homo sapiens) (UniProt Q96RI1)
Sequence (Q96RI1 whole entry, looked up): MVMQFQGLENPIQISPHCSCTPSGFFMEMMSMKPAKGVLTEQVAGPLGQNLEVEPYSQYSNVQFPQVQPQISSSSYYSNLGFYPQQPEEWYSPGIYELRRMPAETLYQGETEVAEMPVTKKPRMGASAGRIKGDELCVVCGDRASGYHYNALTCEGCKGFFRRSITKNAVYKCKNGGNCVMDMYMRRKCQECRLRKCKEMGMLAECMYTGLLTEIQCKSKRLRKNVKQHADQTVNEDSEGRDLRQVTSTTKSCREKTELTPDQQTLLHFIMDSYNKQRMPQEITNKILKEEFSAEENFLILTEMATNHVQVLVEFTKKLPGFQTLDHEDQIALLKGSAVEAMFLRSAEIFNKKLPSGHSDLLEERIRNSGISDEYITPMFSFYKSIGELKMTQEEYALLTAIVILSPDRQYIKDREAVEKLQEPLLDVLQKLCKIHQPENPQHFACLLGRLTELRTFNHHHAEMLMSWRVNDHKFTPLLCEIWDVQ
Assay: OT_FXR_FXRSRC1_1440: Odyssey Thera (OT) 24-hour HEK293T Protein-Complementation Assay for Farnesoid X receptor/SRC-1 Co-activator (AID 2283384)
Results filed as inconclusive are left out. Calls of active or inactive are those of the source. The calls were made as follows: active = hit-call score of the fitted dose curve at least 0.9, where 1 is the maximum; inconclusive = response in the unintended direction; inactive = score below 0.9.
The categories you may choose from are label 1 (active), label 0 (inactive)

Query block: Could you kindly confirm the outcome this assay logged for `C=C(C)[C@H]1Cc2c(ccc3c2O[C@@H]2COc4cc(OC)c(OC)cc4[C@@H]2C3=O)O1` ?
Result block: label 1

Query block: Could you kindly confirm the outcome this assay logged for `CN1COCN(Cc2cnc(Cl)s2)C1=N[N+](=O)[O-]` ?
Result block: label 0

Query block: Could you kindly confirm the outcome this assay logged for `Cc1cc(C2CC2)nc(Nc2ccccc2)n1` ?
Result block: label 0

---

Experiment: BSK_LPS_PGE2: BioMAP Diversity Plus: LPS Assay for Prostaglandin E2 (PGE2) Biomarker Activity (AID 2283082)
Details: primary human HUVEC with PBMC; actives raise or lower the signal
Calls of active or inactive are those of the source. The calls were made as follows: active = hit-call score of the fitted dose curve at least 0.9, where 1 is the maximum; inactive = score below 0.9.
The categories you may choose from are active, inactive

Query block: Could you kindly confirm the outcome this assay logged for `CN(C)[C@@H]1C(=O)C(C(N)=O)=C(O)[C@@]2(O)C(=O)C3=C(O)c4c(O)cccc4[C@@](C)(O)[C@H]3[C@H](O)[C@@H]12` ?
Result block: inactive

Query block: Could you kindly confirm the outcome this assay logged for `S=C1NCCN1` ?
Result block: inactive

Query block: Could you kindly confirm the outcome this assay logged for `CON=C(C(=O)OC)c1ccccc1CON=C(C)c1cccc(C(F)(F)F)c1` ?
Result block: active

---

Experiment: CCTE_Shafer_MEA_dev_network_spike_duration_std: CCTE's Neural Network Formation Assay for Standard Deviation of Network Spike Duration, Shafer Lab (AID 2284052);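 also: area under curve of spike duration SD across recording days 5 to 12; hits are decreases in network spike duration SD versus DMSO vehicle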
Calls of active or inactive are those of the source. The calls were made as follows: active = hit-call score of the fitted dose curve at least 0.9, where 1 is the maximum; inactive = score below 0.9.
The categories you may choose from are true (1) for active, false (0) for inactive

Query block: Could you kindly confirm the outcome this assay logged for `CCCCSP(=O)(SCCCC)SCCCC` ?
Result block: false (0)

Query block: Could you kindly confirm the outcome this assay logged for `O=[N+]([O-])c1cc(C(F)(F)F)c(Cl)c([N+](=O)[O-])c1Nc1ncc(C(F)(F)F)cc1Cl` ?
Result block: true (1)

Query block: Could you kindly confirm the outcome this assay logged for CCOP(=O)(SC(C)CC)N1CCSC1=O (centres undefined) ?
Result block: false (0)

Query block: Could you kindly confirm the outcome this assay logged for COP(=O)(NC(C)=O)SC (centres undefined) ?
Result block: false (0)

---

Read-out: BCL2L11 (gene 10018)
Test: LTEA_HepaRG_BCL2L11: Life Technologies and Expression Analysis (LTEA) Assay for Bcl-2 (BCL2L11) gene using HepaRG (AID 2283473)
Details: mRNA level, 48 h; actives raise or lower the signal
The source made the active and inactive calls. Rule for the calls: active = hit-call score of the fitted dose curve at least 0.9, where 1 is the maximum; inactive = score below 0.9.
The categories you may choose from are active, inactive

Query block: Could you kindly confirm the outcome this assay logged for C#CCC1=C(C)C(OC(=O)C2C(C=C(C)C)C2(C)C)CC1=O (stereo unspecified) ?
Result block: inactive

Query block: Could you kindly confirm the outcome this assay logged for `C#CC(C)(C)NC(=O)c1cc(Cl)cc(Cl)c1` ?
Result block: inactive

Query block: Could you kindly confirm the outcome this assay logged for `CCC(CC)Nc1c([N+](=O)[O-])cc(C)c(C)c1[N+](=O)[O-]` ?
Result block: inactive

Query block: Could you kindly confirm the outcome this assay logged for `CC[C@H](C)[C@H]1O[C@]2(C=C[C@@H]1C)C[C@@H]1C[C@@H](C/C=C(\C)[C@@H](O[C@H]3C[C@H](OC)[C@@H](O[C@H]4C[C@H](OC)[C@@H](NC)[C@H](C)O4)[C@H](C)O3)[C@@H](C)/C=C/C=C3\CO[C@@H]4[C@H](O)C(C)=C[C@@H](C(=O)O1)[C@]34O)O2` ?
Result block: active

Query block: Could you kindly confirm the outcome this assay logged for `CNC(=O)ON=C(C)SC` ?
Result block: inactive

Query block: Could you kindly confirm the outcome this assay logged for `O=C(O)c1cc(Oc2ccc(C(F)(F)F)cc2Cl)ccc1[N+](=O)[O-]` ?
Result block: inactive

Query block: Could you kindly confirm the outcome this assay logged for `CCCCSP(=O)(SCCCC)SCCCC` ?
Result block: inactive

Query block: Could you kindly confirm the outcome this assay logged for `C=C(C)[C@H]1Cc2c(ccc3c2O[C@@H]2COc4cc(OC)c(OC)cc4[C@@H]2C3=O)O1` ?
Result block: active

Query block: Could you kindly confirm the outcome this assay logged for `O=c1ccc(=O)[nH][nH]1` ?
Result block: inactive

Query block: Could you kindly confirm the outcome this assay logged for `COc1cc(OC)nc(Sc2cccc(Cl)c2C(=O)O)n1` ?
Result block: inactive

Query block: Could you kindly confirm the outcome this assay logged for `Cc1ccn2nc(S(=O)(=O)Nc3c(F)cccc3F)nc2n1` ?
Result block: inactive

Query block: Could you kindly confirm the outcome this assay logged for `CNC(=O)Oc1cccc2c1OC(C)(C)O2` ?
Result block: inactive

Query block: Could you kindly confirm the outcome this assay logged for CCOP(=O)(SC(C)CC)N1CCSC1=O (stereo unspecified) ?
Result block: inactive

Query block: Could you kindly confirm the outcome this assay logged for CCOC(=O)CC(SP(=O)(OC)OC)C(=O)OCC (stereo unspecified) ?
Result block: inactive

Query block: Could you kindly confirm the outcome this assay logged for CCOP(=S)(OCC)OC(Cl)C(Cl)(Cl)Cl (stereo unspecified) ?
Result block: inactive

Query block: Could you kindly confirm the outcome this assay logged for `CSC1=N[C@@](C)(c2ccccc2)C(=O)N1Nc1ccccc1` ?
Result block: active

Query block: Could you kindly confirm the outcome this assay logged for `CCCOc1nn(C(=O)NS(=O)(=O)c2ccccc2C(=O)OC)c(=O)n1C` ?
Result block: inactive

Query block: Could you kindly confirm the outcome this assay logged for CC(COc1ccc(Oc2ccccc2)cc1)Oc1ccccn1 (stereo unspecified) ?
Result block: inactive

Query block: Could you kindly confirm the outcome this assay logged for `CCCCOC(=O)[C@@H](C)Oc1ccc(Oc2ccc(C#N)cc2F)cc1` ?
Result block: inactive

Query block: Could you kindly confirm the outcome this assay logged for `CCOC(=O)COc1cc(-c2nn(C)c(OC(F)F)c2Cl)c(F)cc1Cl` ?
Result block: inactive

Query block: Could you kindly confirm the outcome this assay logged for `CCOP(=S)(OCC)Oc1cc(C)nc(C(C)C)n1` ?
Result block: inactive
